Sourced from patent US9611275B2

Consider the following compounds; for each one, report its Papp at 3 h, 1 μM.
test_method_notes: Assay for determination of apparent permeability (Papp), bi-directional transport
condition_summary: pig, LLC-PK1
Numbers only, in ×10⁻⁶ cm/s.

Completed entries (count: 4):
chemical_smiles | Papp at 3 h, 1 μM, ×10⁻⁶ cm/s
CNC1=N[C@@H]2[C@@H](O)[C@H](O)[C@@H]([C@@H](OCCCc3ccc(F)cc3)C(F)(F)F)O[C@@H]2S1 | 29.7
COc1ccc(CO[C@H]([C@H]2O[C@@H]3SC(N(C)C)=N[C@@H]3[C@@H](O)[C@@H]2O)C(F)(F)F)cc1 | 30.5
CN(C)C1=N[C@@H]2[C@@H](O)[C@H](O)[C@@H]([C@@H](OCc3cccc(C(F)(F)F)c3)C(F)(F)F)O[C@@H]2S1 | 29.5
CCc1ccc(CO[C@H]([C@H]2O[C@@H]3SC(N(C)C)=N[C@@H]3[C@@H](O)[C@@H]2O)C(F)(F)F)cc1 | 30.7

Take each entry in turn and give its Papp at 3 h, 1 μM.
1. CNC1=N[C@@H]2[C@@H](O)[C@H](O)[C@@H]([C@@H](OCc3ccccc3C(F)(F)F)C(F)(F)F)O[C@@H]2S1
2. CN(C)C1=N[C@@H]2[C@@H](O)[C@H](O)[C@@H]([C@@H](Oc3ccc([N+](=O)[O-])cc3)C(F)(F)F)O[C@@H]2S1
3. CCO[C@H]([C@H]1O[C@@H]2SC(N(C)C)=N[C@@H]2[C@@H](O)[C@@H]1O)C(F)(F)F
4. CCNC1=N[C@@H]2[C@@H](O)[C@H](O)[C@@H]([C@@H](OCc3ccc(OC)cc3)C(F)(F)F)O[C@@H]2S1
5. CN(C)C1=N[C@@H]2[C@@H](O)[C@H](O)[C@@H]([C@@H](OCc3ccc(CCF)cc3)C(F)(F)F)O[C@@H]2S1
6. CN(C)C1=N[C@@H]2[C@@H](O)[C@H](O)[C@@H]([C@@H](OCc3cccc(F)c3F)C(F)(F)F)O[C@@H]2S1

1. 29.2
2. 31.5
3. 23.6
4. 30.1
5. 29.5
6. 34.5
